Values were extracted from PubChem BioAssay (NCATS).

# measured.on: RecQ-like DNA helicase BLM (Homo sapiens)
# assay.comment: qHTS Validation Assay for Inhibitors of Bloom's syndrome helicase (BLM) (AID 2364)
# condition.description: BLM helicase DNA unwinding, fluorescence, in vitro; series mostly up to 57.1 µM
Records with an inconclusive call do not appear. Active and inactive are the calls of the source. The call rests on the fitted dose curve; in most records, active means well fitted inhibition curve with a large enough effect; inconclusive means small, poorly fitted or top-dose-only effect; inactive means no such curve, though single readings can be large or run the other way.
# output must be one of active, inactive

Previously resolved entries follow.
| compound | answer.label |
| --- | --- |
| OC[C@H]1NC[C@@H](O)[C@@H]1O | inactive |
| Cc1ccc([N+](=O)[O-])cc1S(=O)(=O)N(C)C | inactive |
| CCCCCCC/C=C\CCCCCCCCC(=O)O | active |
| Nc1ccc(-c2nc3ccc(-c4nc5ccc(N)cc5[nH]4)cc3[nH]2)cc1 | active |
| COc1ccccc1N1CCN(CCCCN2C(=O)c3ccccc3C2=O)CC1 | inactive |
| COc1ccccc1N1CCN(CCCNc2c(C)c(=O)n(C)c(=O)n2C)CC1 | inactive |
| CN1C2CCC1CC(OC(c1ccccc1)c1ccccc1)C2 (stereo not given) | inactive |
| NOCC(=O)O | inactive |

Answer briefly: the call reported for NC1CCN(O)C1=O (stereo not given) in this assay.
inactive

Answer briefly: the call reported for Cn1c(=O)c2[nH]c(C3CCCC3)nc2n(C)c1=O in this assay.
inactive

---

# Tested on: Zika virus NS2B-NS3 protease (unlinked)
# assay.comment: Optimization of GU AMC qHTS for Zika virus inhibitors: Unlinked NS2B-NS3 protease assay (AID 1347151); further: nearly all actives have a fitted effect of over 80% in size
# condition.description: recombinant ZIKV NS2B-NS3 protease, fluorogenic AMC substrate; series mostly up to 52.5 µM
Results filed as inconclusive are left out. The source made the active and inactive calls. Calls follow the shape of the dose curve; as a rule, active = well fitted inhibition curve with a large enough effect; inconclusive = small, poorly fitted or top-dose-only effect; inactive = no such curve, though single readings can be large or run the other way. Residues, ends and D or L forms follow the SMILES beside them. *: point of attachment. Cbz = O=C(OCc1ccccc1)*
# output must be one of true for active, false for inactive

| compound | measured.on | answer.label |
| --- | --- | --- |
| c1ccc(C(NCCNC(c2ccccc2)c2ccccc2)c2ccccc2)cc1 | Zika virus NS2B-NS3 protease (unlinked) | false |
| NC(Cc1cccc(-c2ccccc2CP(=O)(O)O)c1)C(=O)O (stereo unspecified) | Zika virus NS2B-NS3 protease (unlinked) | false |

Answer briefly: the call reported for N[C@H](C(=O)O)c1cc(O)cc(O)c1 in this assay.
false

Answer briefly: the call reported for O=C(N[C@@H](Cc1ccccc1)C(=O)CCl)OCc1ccccc1 in this assay.
false

Answer briefly: the call reported for CC(C)[C@H](NC(=O)OCc1ccccc1)C(=O)N[C@H](C=O)Cc1ccccc1 (Cbz-Val-Phe-aldehyde) in this assay.
false

Answer briefly: the call reported for C=CC[C@H](N)C(=O)O in this assay.
false

Answer briefly: the call reported for CCN(CC)CCOC(=O)c1cc(Cl)c(N)cc1OC in this assay.
false

Answer briefly: the call reported for C=CCN1CCc2c(cc(O)c(O)c2Cl)C(c2ccccc2)C1 (stereo unspecified) in this assay.
true

Answer briefly: the call reported for CC1CCN=C(N)S1 (stereo unspecified) in this assay.
false

Answer briefly: the call reported for NC(=O)CC[C@H](N)C(=O)O in this assay.
false

Answer briefly: the call reported for Cc1nc(N=Nc2cc(S(=O)(=O)O)c3cc([N+](=O)[O-])cc(S(=O)(=O)O)c3c2)c(COP(=O)(O)O)c(C=O)c1O in this assay.
true

---

# measured.on: Tumor susceptibility gene 101 protein (Homo sapiens)
# assay.comment: qHTS Validation Assay for Iinhibitors of HIV-1 Budding by Blocking the Interaction of PTAP/TSG101 (AID 485342); further: 0% is about no effect
# condition.description: TSG101-PTAP binding, fluorescence polarization, 4-point titration; series mostly up to 115 µM
# Source text: NIH Molecular Libraries Probe Production Network [MLPCN] NIH Chemical Genomics Center [NCGC] PI Name: Dr. Eric Freed, NCI Stages of the HIV-1 replication cycle, specifically virus assembly and release, provide underexploited targets for the development of novel antiviral inhibitors. […] A fluorescence anisotropy assay has been developed to quantitatively measure the PTAP-Tsg101 interaction which can be used to screen for inhibitors of this interaction. […]
Active and inactive are the calls of the source. The call rests on the fitted dose curve.
parameter: outcome

| compound | outcome |
| --- | --- |
| Cc1ccccc1/C=C/C1=NCCN1 | inactive |
| CCN(c1nc(N)c(C(=O)N=C(N)N)nc1Cl)C(C)C | inactive |
| CC1CCN(CC[C@H]2CCCN2S(=O)(=O)c2cccc(O)c2)CC1 | inactive |
| OC[C@H]1O[C@H](n2cnc3c(N[C@H]4CCC[C@@H]4O)ncnc32)[C@H](O)[C@@H]1O | inactive |

Entry CCCCCCCCCC[Si](C)(C)CCC(=O)NC(Cc1ccc(C)cc1)c1ccccc1 (centres undefined) : reported outcome = ?
inactive

Entry N#Cc1cc2nc(O)c(O)nc2cc1[N+](=O)[O-] : reported outcome = ?
inactive

Entry NC1C=CC=C(C(=O)O)C1 (centres undefined) : reported outcome = ?
inactive

Entry COc1cc(CC(=O)O)ccc1O : reported outcome = ?
inactive

Entry N[C@H](C(=O)O)[C@H](Cc1ccccc1)C(=O)O : reported outcome = ?
inactive

Entry Nc1ccc(-c2ccc3ccccc3n2)cc1 : reported outcome = ?
inactive

Entry C[C@]12C=CC(=O)C=C1CC[C@@H]1C2=CC[C@]2(C)[C@@H](C(=O)CN3CCN(c4cc(N5CCCC5)nc(N5CCCC5)n4)CC3)CC[C@@H]12 : reported outcome = ?
inactive

---

# assay.comment: Stat Signaling Pathway (AID 446);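 further: ME-180 cervical cancer cells given 40 pM IL-6 alongside compound; SIE-controlled beta-lactamase reporter measured as 460/530 nm FRET emission ratio; on the % scale 0 is the no-effect control and ±100 the full control effect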
# condition.description: ME-180 (cervical carcinoma) SIE beta-lactamase reporter, IL-6 stimulated, 5 h; at 38 µM (top of the series) unless noted
Records with an inconclusive call do not appear. Activity calls are given as the source filed them. Calls come from the whole dose curve; as a rule, active = well fitted curve in either direction with a large enough effect (not every such curve was filed as active); inconclusive = small, poorly fitted or top-dose-only effect, or another doubt; inactive = flat fitted curve, though single readings scatter.
activity, negative = inhibition reference

| structure.notation | activity, negative = inhibition |
| --- | --- |
| CCN(CC)CCOC(=O)c1cc(Cl)c(N)cc1OC | -0.802% (inactive) |
| CCCCCCCCCCCCCCSCC(=O)O | -3.53% (inactive) |
| C[C@H](NC(=O)/C(C#N)=C/c1ccc(O)c(O)c1)c1ccccc1 | -15.4% (inactive) |
| CCCn1c(=O)c2[nH]c(-c3ccc(S(=O)(=O)O)cc3)nc2n(CCC)c1=O | 42.3% (inactive) |

Entry N=C(N)c1ccc(N)cc1 : reported activity, negative = inhibition = ?
-11.4% (inactive)

---

# measured.on: Thyrotropin-releasing hormone receptor (Homo sapiens) (UniProt P34981)
# Sequence (P34981 whole entry, looked up): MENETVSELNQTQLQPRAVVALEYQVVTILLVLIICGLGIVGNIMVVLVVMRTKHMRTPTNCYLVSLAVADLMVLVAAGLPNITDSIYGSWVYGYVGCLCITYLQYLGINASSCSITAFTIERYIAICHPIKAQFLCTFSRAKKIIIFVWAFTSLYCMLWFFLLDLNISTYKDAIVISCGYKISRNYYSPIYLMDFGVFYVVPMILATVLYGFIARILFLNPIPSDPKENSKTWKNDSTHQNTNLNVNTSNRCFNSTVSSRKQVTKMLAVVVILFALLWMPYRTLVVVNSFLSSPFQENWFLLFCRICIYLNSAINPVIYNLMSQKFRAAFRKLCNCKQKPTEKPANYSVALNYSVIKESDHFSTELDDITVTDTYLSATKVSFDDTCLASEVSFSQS
# assay.comment: qHTS for Small Molecule Agonists and Allosteric Enhancers of Human TRH Receptor: Validation Screen for Agonists (AID 493127);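 further: intracellular calcium rise by fluo-8 fluorescence before TRH EC20 addition; 0% is about no effect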
# condition.description: TRH receptor agonist cell assay; at 2 µM; hits give high values
activation reference
// units = %; emit number, no label

| structure.notation | measured.on | parameter | assay.result |
| --- | --- | --- | --- |
| CCn1c(=O)[nH]c2cc(Cl)c(Cl)cc21 | Thyrotropin-releasing hormone receptor (Homo sapiens) (UniProt P34981) | activation | 1.69 |
| N[C@@H](Cc1ccc(O)c(I)c1)C(=O)O | Thyrotropin-releasing hormone receptor (Homo sapiens) (UniProt P34981) | activation | 1.19 |
| CC(=O)/C(C)=N/O | Thyrotropin-releasing hormone receptor (Homo sapiens) (UniProt P34981) | activation | 0.0625 |
| N=C(N)SCCN | Thyrotropin-releasing hormone receptor (Homo sapiens) (UniProt P34981) | activation | 0.688 |
| Cc1nc(N=Nc2ccc(S(=O)(=O)O)cc2S(=O)(=O)O)c(COP(=O)(O)O)c(C=O)c1O | Thyrotropin-releasing hormone receptor (Homo sapiens) (UniProt P34981) | activation | 0.938 |

Entry CCCn1c(=O)c2[nH]c(C3CCCC3)nc2n(CCC)c1=O : reported activation = ?
-3.88

Entry O=C1Cc2c([nH]c3ccc(Br)cc23)-c2ccccc2N1 : reported activation = ?
9.25

---

# assay.comment: Quantitative high throughput screen for delayed death inhibitors of the malarial parasite plastid, 48 hour incubation (AID 488752); further: nearly all actives have a fitted effect of over 65% in size
# condition.description: Plasmodium falciparum growth; series mostly up to 28.7 µM
Inconclusive results are not listed. Calls of active or inactive are those of the source. Calls come from the whole dose curve; as a rule, active = well fitted inhibition curve with a large enough effect; inconclusive = small, poorly fitted or top-dose-only effect, or effect the other way; inactive = flat fitted curve, though single readings scatter. Residues, ends and D or L forms follow the SMILES beside them. *: point of attachment. Cbz = O=C(OCc1ccccc1)*
# output must be one of active, inactive

Answer briefly: the call reported for C=CCn1c(=O)c2c(nc(-c3ccc(S(=O)(=O)O)cc3)n2C)n(C)c1=O in this assay.
inactive

Answer briefly: the call reported for NCC(O)(CS(=O)(=O)O)c1ccc(Cl)cc1 (stereo not given) in this assay.
inactive

Answer briefly: the call reported for CNc1cc(NS(=O)(=O)c2ccc(N)cc2)nc(NC)n1 in this assay.
inactive

Answer briefly: the call reported for Nc1ccc(CCNc2ncnc3c2ncn3C2OC(CO)C(O)C2O)cc1 (stereo not given) in this assay.
inactive

Answer briefly: the call reported for CC(C)[C@H](NC(=O)OCc1ccccc1)C(=O)N[C@H](C=O)Cc1ccccc1 (Cbz-Val-Phe-aldehyde) in this assay.
active
